Exercise: for every item that follows, state its recorded pKi.
# log scale: pKi equals minus log10 of the concentration in mol/L

Coagulation factor X (Homo sapiens, UniProt P00742) / pKi / N=C(N)c1cccc(Cn2c(C(=O)NCCc3cccc(Cl)c3)cc3c(O)cccc32)c1 : value?
6.15

Coagulation factor X (Homo sapiens, UniProt P00742) / pKi / N=C(N)c1cccc(Cn2c(C(=O)NCc3cc(Cl)cc(Cl)c3)cc3c(O)cccc32)c1 : value?
8.30

Coagulation factor X (Homo sapiens, UniProt P00742) / pKi / Cc1cc(C)cc(CNC(=O)c2cc3c(O)cccc3n2Cc2cccc(C(=N)N)c2)c1 : value?
7.96
